For each record, write down the corresponding Kd.
# target: T1, cynomolgus monkey IL-6 (cynomolgus monkey, UniProt P79341 28-212, limits assumed)
# T1 construct: also called HIS-cyIL-6
# assay-comment: SPR; periplasmic fraction
Field format: number, assumed pM, no unit text.

**Q:** Return reported Kd; argument: Fab 55H1 (Fab, V domains shown, VL-shuffled Fab of 29B11, periplasmic fraction; also called 55H1c) VH: EVQLVESGGGLVQPGGSLRLSCAASGFTFSSYAMSWVRQAPGKGLEWVSRISSGGISTYYADSVKGRFTISRDNAKNTLYLQMNSLKPEDTAVYYCVRYAWGVQWAFDFWGQGTQVTVSS VL: AQSVVTQPPSVSGSPGKTVTISCAGTSSDVGYGNYVSWYQQLPGMAPKLLIYDVSKRASGIADRFSGSKSGNTASLTISGLQSEDEADYVCASYRRGGTAVFGGGTHLTVLG
**A:** 529

**Q:** For Fab 47C2 (Fab, V domains shown, VL-shuffled Fab of 29B11, periplasmic fraction; also called 47C2 (R4)) VH: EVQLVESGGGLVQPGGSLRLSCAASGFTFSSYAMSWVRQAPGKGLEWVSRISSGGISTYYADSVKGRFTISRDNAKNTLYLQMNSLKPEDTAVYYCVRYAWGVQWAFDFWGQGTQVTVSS VL: LSYDLTQPPSVSGSPGKTVTISCAGTSSDVGYGNYVSWYQQLPGMAPKILIYDVNKRASGIADRFSGSKSGNTASLTISGLQSEDEADYYCASYRRGETIVFGGGTHLTVLG then?
**A:** 1540

**Q:** For Fab 55C1 (Fab, V domains shown, VL-shuffled Fab of 29B11, periplasmic fraction; also called 55C1a) VH: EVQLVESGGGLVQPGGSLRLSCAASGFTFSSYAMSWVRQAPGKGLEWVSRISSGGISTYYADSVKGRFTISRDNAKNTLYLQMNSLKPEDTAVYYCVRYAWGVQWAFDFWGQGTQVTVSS VL: LNFMLTQPPSVSGSPGKTVTISCAGTSSDVGYGNYVSWYQQLPGTAPKLLIYNVNKRASGITDRFSGSKSGNTASLTISGLQSEDEADYYCASYRTGDNAAFGGGTKLTVLG then?
**A:** 801

Reference for the values: patent US20220073604A1
